- Test system: Candida albicans
- testProtocol: Antifungal activity against Candida albicans ATCC 10231 at 10 ug/ml by agar cup-plate method
- Format: functional
- measurementConditions: read-out: IZ
parameter: zone of inhibition at 10 µg/mL
Please give the number followed by its unit.

# zone of inhibition at 10 µg/mL lookup, item OC(Cn1cncn1)(Cn1cncn1)c1ccc(F)cc1F [FLUCONAZOLE]
21 mm

Now consider O=c1c2cc(I)ccc2nc(Cc2ccccc2Nc2ccccc2)n1NC1=NNC(c2cccc(Cl)c2)C1 (centres undefined) .
14 mm

Query O=c1c2cc(I)ccc2nc(Cc2ccccc2Nc2ccccc2)n1NC1=NNC(c2ccccc2)C1 (centres undefined) next
15 mm

// repeat for O=c1c2cc(I)ccc2nc(Cc2ccccc2Nc2ccccc2)n1NC1=NNC(c2ccc([N+](=O)[O-])cc2)C1 (centres undefined) and report
14 mm
